experiment: amyloid nucleation score (Sup35N fusion, yeast selection) (log enrichment); library NNK2; higher = more nucleation; inactive = no reads after selection;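 also: zero at mode of non-aggregating sequences after 7 days selection at 30°C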
Readout name: amyloid nucleation score

Answered examples (5):
[
  {
    "Substance": "SINSSV",
    "Experimental result": -0.166
  },
  {
    "Substance": "STALAFYP",
    "Experimental result": "inactive"
  },
  {
    "Substance": "IVHYVFFWMGGILGNHASFP",
    "Experimental result": -1.31
  },
  {
    "Substance": "RALVRLHSDYMLWRFMVADS",
    "Experimental result": 0.399
  },
  {
    "Substance": "VYRDDCFHFLDTSQTGACLT",
    "Experimental result": 0.797
  }
]

Please look up its amyloid nucleation score: `QGLIFVSLFRCCSLCRQYTD`
2.72

* * *

test: amyloid nucleation score (Sup35N fusion, yeast selection) (log enrichment); library NNK1; higher = more nucleation; inactive = no reads after selection
Readout name: amyloid nucleation score

[
  {
    "Substance": "GILFALSIVRDDYFC",
    "amyloid nucleation score": -0.215
  },
  {
    "Substance": "FSSLWDGLLY",
    "amyloid nucleation score": 1.16
  },
  {
    "Substance": "DDSHVSCDYTLYGWSFGYMC",
    "amyloid nucleation score": 2.37
  },
  {
    "Substance": "GRGWYGSRYARVVHFVWGYA",
    "amyloid nucleation score": -0.487
  },
  {
    "Substance": "FALVRTLTRSKSSFTTSQIK",
    "amyloid nucleation score": 0.524
  }
]

// switching to the query substance
Any idea what amyloid nucleation score was measured for `GLFMGWYDRMP` ?
0.265

* * *

assay: amyloid nucleation score (Sup35N fusion, yeast selection) (log enrichment); library NNK1; higher = more nucleation; inactive = no reads after selection
Binned amyloid nucleation score; ranges: low = under -0.2, medium = from -0.2 up to 0.7, high = 0.7 and over

[
  {
    "Substance": "IFHLCFLKGNGSFMLYKRHT",
    "Class name": "low"
  },
  {
    "Substance": "DFSCGRMGFALERSLAMYRA",
    "Class name": "medium"
  },
  {
    "Substance": "ILLELVASTVVLPLIT",
    "Class name": "medium"
  },
  {
    "Substance": "PHAHDTWYGYA",
    "Class name": "low"
  },
  {
    "Substance": "GRRYELPGPSPYCVRDSGRR",
    "Class name": "low"
  }
]

Hi there! Could you help me figure out the category for `FGSARGHSGY` please?
high

Same again, this time with `FVECSERRGSKGSLYIDEVS`
low

Let us now turn to `VAVTSSMFFRPNFNLNTVLS`
high

Another substance to check: `IAWFYRGPIKLLRLYIGGIW`
medium

Next record, please: `LYNFVGSNRIRFASCTQLLC`
high

Same again, this time with `AQLYVNWFCVWSFKE`
high

Try this substance too: `KVNLTSCSY`
medium

Same question, `QVHIERDVERPYMFLGTAWG` this time
low

Again, but for `HSSPLGLLWGAPARRRYCRR`
low

* * *

test: amyloid nucleation score (Sup35N fusion, yeast selection) (log enrichment); library NNK2; higher = more nucleation; inactive = no reads after selection
Entries are grouped by amyloid nucleation score into these classes: bottom range (below -0.4), center range (-0.4 to below 0.7), top range (0.7 or more)

Each substance maps to one class by amyloid nucleation score. Which class for `GVLYLFTVTVMDKKFTM` ?
top range

* * *

experiment: amyloid nucleation score (Sup35N fusion, yeast selection) (log enrichment); library NNK1; higher = more nucleation; inactive = no reads after selection
Listed here: items and their measured amyloid nucleation score.
Answer field: number only, no words.

Please review the following examples before continuing.
[
  {
    "Substance": "HGAMLSSM",
    "amyloid nucleation score": -2.06
  },
  {
    "Substance": "DTLIFVLREVTLLNDAGVSS",
    "amyloid nucleation score": 0.646
  },
  {
    "Substance": "DYRIEVSLSVVYCFGLNMRN",
    "amyloid nucleation score": 2.38
  }
]

Fill in the blank: the reported amyloid nucleation score of `TCRKFKYPL` is ____.
0.372

Let us now turn to `SFLDMGFEAVNFGVVPSIMR`
0.479

Another substance to look at: `YTVRGRDYNGAM`
-1.3

Next substance: `LCDGFILLSNVLLGPMIYDW`
0.561

Now this one: `YKVCRMCAKGCSDSFRPVRA`
0.555

Please do the same for `LFRGDGFRKLLFWNSSTFET` as well.
2.67

What would you report for `FRRYLWFRDRPGFCCFRLMQ` ?
-0.46

Now this one: `GWSIMVGQMASLLWCIRAGT`
0.116

Lookup `KNALWVRTVKNMCVLWDTGF`
-1.08

Request: `NTVRNMSVNELFVSFDRGWF`
4.83

And the next one, `VRYEIAA` ?
-1.06

Queued: `LAFNTIYWVIRIESFWLSAA`
-0.189

Subsequent entry: `YMPRSQIGSTSHVNWREMAE`
-0.311

How about `QSMSCRAFVVTSRLVHWGTQ` ?
-0.438

* * *

assay: amyloid nucleation score (Sup35N fusion, yeast selection) (log enrichment); library NNK1; higher = more nucleation; inactive = no reads after selection
Entries annotated with measured amyloid nucleation score
# respond with the number and nothing more

Consider the reported amyloid nucleation score for these substances:
[
  {
    "Substance": "FIWSVTYSGP",
    "amyloid nucleation score": 1.48
  },
  {
    "Substance": "MGRQEASMKRCTSGDVGGWL",
    "amyloid nucleation score": 0.523
  },
  {
    "Substance": "DFNHYDRSSW",
    "amyloid nucleation score": 2.45
  },
  {
    "Substance": "DLRKAGGWHRVIC",
    "amyloid nucleation score": 0.111
  },
  {
    "Substance": "NLVRLVRIARCSMRSSVGTL",
    "amyloid nucleation score": 1.23
  }
]

Requested field: amyloid nucleation score. Item: `SFAHHAFIGFILSSWWN`
-1.06

Field entry: `SKSYFSIV`
-0.361

Moving on to `RNRYTFSIRLVQTDYCFLGM`
1.63

Cool, now `ERRLTTFCCMWANLGVADGT`
0.436

Record: `PSALGMVNGYIRVIYKRR`
0.359

* * *

Reported amyloid nucleation score values for a set of substances
experiment: amyloid nucleation score (Sup35N fusion, yeast selection) (log enrichment); library NNK1; higher = more nucleation; inactive = no reads after selection
Just the number, please, no unit attached.

[
  {
    "Substance": "ISQVIGSRILPRPTEQVA",
    "amyloid nucleation score": -1.96
  },
  {
    "Substance": "CAIFFTASLCVCRLSAACEQ",
    "amyloid nucleation score": 1.75
  },
  {
    "Substance": "INYHMVNLNVLAMC",
    "amyloid nucleation score": 2.17
  },
  {
    "Substance": "PEAPPLLIVSGFN",
    "amyloid nucleation score": 1.2
  },
  {
    "Substance": "NFLFAYVLALRLFMYSVNMW",
    "amyloid nucleation score": 4.5
  }
]

Can you share its amyloid nucleation score? I mean this substance: `VFYQLCDWYNFGF`
5.68

Try `LYWSQIEVVNPQTTEGLNRD` next.
-0.528

Then what about the substance `SWNYLVTDAKRRDGGEERVR` ?
-0.851

Subsequent entry: `LKVPCL`
-0.067

Now consider `FFCLSIHVYSG` .
0.46

And for `YTDAIYHPIPRTGMYSWC` ?
-0.194

What do we get for `QYCKFPNIRRLRINK` ?
-0.393

// same read-out, input: `PMVIKVLVGCRGYSDLNLYW`
4.9

One more substance: `FRGSLIFSISVIKVISVLSE`
2.11

What do you have for `EGSQLSPAWFGYRDDGFTTM` ?
0.904

`FRFSHRLFLWPKYFSIFKNS` ?
0.37

Same thing, different substance: `MCLTRSSLEVRQVTIVMWSG`
0.387

* * *

experiment: amyloid nucleation score (Sup35N fusion, yeast selection) (log enrichment); library NNK3; higher = more nucleation; inactive = no reads after selection
Readout name: amyloid nucleation score

Example entries begin here.
[
  {
    "Substance": "KIQTNCNFTC",
    "amyloid nucleation score": 2.5
  },
  {
    "Substance": "QDAMSTEVEGTF",
    "amyloid nucleation score": "inactive"
  },
  {
    "Substance": "SMQKGGK",
    "amyloid nucleation score": "inactive"
  },
  {
    "Substance": "YPCERYHRPHDQQNVDLTNL",
    "amyloid nucleation score": "inactive"
  },
  {
    "Substance": "KERVNRSLTYTVFSS",
    "amyloid nucleation score": "inactive"
  },
  {
    "Substance": "WPAAQVNQIHYCVGLNNYTW",
    "amyloid nucleation score": "inactive"
  }
]

Need amyloid nucleation score of `LHQCRDKL` , thanks.
inactive

# iterate: `RMFVSIRLLGTCCSDWSYYE`
1.78

Next up: `WNLYCAFSPDYRLNIWTLQI`
inactive
